Experiment: in vitro
Conditions: human, hela cells, % viability
MEASUREMENT LABEL: viability at 28.5 h, 10 µM (%)
State the answer as a number, implicitly in %.

# COMPOUND, viability at 28.5 h, 10 µM, %
records = [
    ("CC(=O)c1c(-c2ccc(C)cc2)nc2n(CCN3CCCCC3)c3ccccc3n12 [CBK278231C]", 101),
]

Query block: Which viability at 28.5 h, 10 µM is listed for CC1Cc2ccccc2N1C(=O)CSc1nnc2sc3ccccc3n12 (centres unmarked) ?
Result block: 94

Query block: Try the compound `CC(C)[C@H]1CN(Cc2ccco2)CCN1Cc1ccco1`
Result block: 79.3

Query block: Try the compound `C1C/C(=N/N=C2\CCCc3nonc32)c2nonc2C1`
Result block: 93.9

Query block: Try the compound `O=[N+]([O-])c1cccc(S(=O)(=O)Nc2nnc(C(F)(F)F)s2)c1`
Result block: 118

###

Assay: in vitro
Settings: human, hela cells, % viability
MEASUREMENT LABEL: viability at 28.5 h, 10 µM (%)
State the answer as a number, implicitly in %.

Guide cases for viability at 28.5 h, 10 µM, answers given:
# COMPOUND, QUANTITATIVE READOUT
data = [
    ("N#CCCNCC1COc2ccccc2O1 (centres unmarked)", 97.7),
    ("Cc1cc(C)n(CCCNC(=O)Cn2cnc3sc(C)c(C)c3c2=O)n1", 76.2),
    ("Cc1cc(C)nc(N2CCC(CC(=O)N3CCN(C4CCCC4)CC3)CC2)n1", 97.6),
    ("CC(C)(C)c1nnc([C@H]2CCN(C(=O)CCC(=O)O)C2)o1", 96.1),
]

Now look at this entry.
Query block: Which viability at 28.5 h, 10 µM is listed for CCOc1ccc2ccccc2c1CNCCSc1nnnn1C [CBK270046C] ?
Result block: 90.6

###

Experiment: in vitro
Details: human, hela cells, % viability
MEASUREMENT LABEL: viability at 28.5 h, 10 µM (%)
State the answer as a number, implicitly in %.

Guide cases for viability at 28.5 h, 10 µM, answers given:
# COMPOUND, MEASUREMENT LABEL, QUANTITATIVE READOUT
records = [
    ("O=C(NC1CCN(CC2(c3ccccc3)CC2)CC1)c1ccco1", "viability at 28.5 h, 10 µM", 83.7),
    ("Cc1cc(OC(=O)C2CCC(CNC(=O)OC(C)(C)C)CC2)c2c3c(c(=O)oc2c1)CCC3 (stereo not shown)", "viability at 28.5 h, 10 µM", 103),
    ("CC1CCCN(CC(O)COCc2ccc3c(c2)OCO3)C1 (stereo not shown) [CBK262830C]", "viability at 28.5 h, 10 µM", 105),
    ("O=C(O)c1nccnc1-c1ccc(COc2ccccc2)cc1", "viability at 28.5 h, 10 µM", 90.2),
    ("Nc1ccc(-c2cc(N)n(-c3ccc(Oc4ccccc4)c(S(=O)(=O)O)c3)n2)cc1", "viability at 28.5 h, 10 µM", 96.1),
    ("COCC(C)N(C)S(=O)(=O)c1ccc(Cl)nc1 (stereo not shown)", "viability at 28.5 h, 10 µM", 95.2),
]

Query block: Which viability at 28.5 h, 10 µM is listed for `COc1ccc([C@H]2CN(Cc3ccccc3)[C@@H]3CCN(C(=O)c4ccccc4F)C[C@H]23)cc1` ?
Result block: 91.1

Query block: Try the compound `NNC(=O)CCc1nc2ccc(O)cc2[nH]1`
Result block: 93

Query block: Try the compound Cc1c(C(=O)N(C)Cc2cc3ccccc3o2)nnn1C1CCNCC1 [CBK304307C]
Result block: 96.4

Query block: Try the compound `O=C(Cn1nnc2ccccc21)NC(c1ccccc1)c1ccccc1`
Result block: 110

Query block: Try the compound O=[N+]([O-])c1ccccc1OCCCn1cnc2ccccc21 [CBK267820G]
Result block: 44.2

Query block: Try the compound `CN(C)C(=O)CCc1nc(-c2ccccn2)no1`
Result block: 88.3
